- subject.of.test: Mitogen-activated protein kinase 10 (Homo sapiens)
- procedure.text: Inhibition of JNK3 assessed as residual enzyme activity at 10 uM relative to untreated control
readout.type: Activity (%)

O=Cc1c[nH]c2c1ccc1c3ccccc3[nH]c12 = 113
O=Cc1c[nH]c2ccc3c4ccccc4[nH]c3c12 = 96
c1ccc2c(c1)[nH]c1c2ccc2cc[nH]c21 = 108
c1ccc2c(c1)[nH]c1c3cc[nH]c3ccc21 = 111

----------
- subject.of.test: Serine/threonine-protein kinase Chk1 (Homo sapiens)
- procedure.text: Inhibition of CHK1 assessed as residual enzyme activity at 10 uM relative to untreated control
readout.type: Activity (%)

O=Cc1c[nH]c2c1ccc1c3ccccc3[nH]c12 = 97
c1ccc2c(c1)[nH]c1c2ccc2cc[nH]c21 = 123
c1ccc2c(c1)[nH]c1c3cc[nH]c3ccc21 = 112
O=Cc1c[nH]c2ccc3c4ccccc4[nH]c3c12 = 101

Cited source for all entries: ChEMBL document CHEMBL1154186
